Quick reference for pIC50 among some compounds
# STUDY_SYSTEM: glucan synthase (GS) prepared from Candida albicans MY1055 (Candida albicans, UniProt O13428)
# Construct: Extraction of GS activity from membranes was performed at a protein concentration of 5 mg/mL in extraction buffer; endogenous in cells
# Sequence (O13428 1-1897): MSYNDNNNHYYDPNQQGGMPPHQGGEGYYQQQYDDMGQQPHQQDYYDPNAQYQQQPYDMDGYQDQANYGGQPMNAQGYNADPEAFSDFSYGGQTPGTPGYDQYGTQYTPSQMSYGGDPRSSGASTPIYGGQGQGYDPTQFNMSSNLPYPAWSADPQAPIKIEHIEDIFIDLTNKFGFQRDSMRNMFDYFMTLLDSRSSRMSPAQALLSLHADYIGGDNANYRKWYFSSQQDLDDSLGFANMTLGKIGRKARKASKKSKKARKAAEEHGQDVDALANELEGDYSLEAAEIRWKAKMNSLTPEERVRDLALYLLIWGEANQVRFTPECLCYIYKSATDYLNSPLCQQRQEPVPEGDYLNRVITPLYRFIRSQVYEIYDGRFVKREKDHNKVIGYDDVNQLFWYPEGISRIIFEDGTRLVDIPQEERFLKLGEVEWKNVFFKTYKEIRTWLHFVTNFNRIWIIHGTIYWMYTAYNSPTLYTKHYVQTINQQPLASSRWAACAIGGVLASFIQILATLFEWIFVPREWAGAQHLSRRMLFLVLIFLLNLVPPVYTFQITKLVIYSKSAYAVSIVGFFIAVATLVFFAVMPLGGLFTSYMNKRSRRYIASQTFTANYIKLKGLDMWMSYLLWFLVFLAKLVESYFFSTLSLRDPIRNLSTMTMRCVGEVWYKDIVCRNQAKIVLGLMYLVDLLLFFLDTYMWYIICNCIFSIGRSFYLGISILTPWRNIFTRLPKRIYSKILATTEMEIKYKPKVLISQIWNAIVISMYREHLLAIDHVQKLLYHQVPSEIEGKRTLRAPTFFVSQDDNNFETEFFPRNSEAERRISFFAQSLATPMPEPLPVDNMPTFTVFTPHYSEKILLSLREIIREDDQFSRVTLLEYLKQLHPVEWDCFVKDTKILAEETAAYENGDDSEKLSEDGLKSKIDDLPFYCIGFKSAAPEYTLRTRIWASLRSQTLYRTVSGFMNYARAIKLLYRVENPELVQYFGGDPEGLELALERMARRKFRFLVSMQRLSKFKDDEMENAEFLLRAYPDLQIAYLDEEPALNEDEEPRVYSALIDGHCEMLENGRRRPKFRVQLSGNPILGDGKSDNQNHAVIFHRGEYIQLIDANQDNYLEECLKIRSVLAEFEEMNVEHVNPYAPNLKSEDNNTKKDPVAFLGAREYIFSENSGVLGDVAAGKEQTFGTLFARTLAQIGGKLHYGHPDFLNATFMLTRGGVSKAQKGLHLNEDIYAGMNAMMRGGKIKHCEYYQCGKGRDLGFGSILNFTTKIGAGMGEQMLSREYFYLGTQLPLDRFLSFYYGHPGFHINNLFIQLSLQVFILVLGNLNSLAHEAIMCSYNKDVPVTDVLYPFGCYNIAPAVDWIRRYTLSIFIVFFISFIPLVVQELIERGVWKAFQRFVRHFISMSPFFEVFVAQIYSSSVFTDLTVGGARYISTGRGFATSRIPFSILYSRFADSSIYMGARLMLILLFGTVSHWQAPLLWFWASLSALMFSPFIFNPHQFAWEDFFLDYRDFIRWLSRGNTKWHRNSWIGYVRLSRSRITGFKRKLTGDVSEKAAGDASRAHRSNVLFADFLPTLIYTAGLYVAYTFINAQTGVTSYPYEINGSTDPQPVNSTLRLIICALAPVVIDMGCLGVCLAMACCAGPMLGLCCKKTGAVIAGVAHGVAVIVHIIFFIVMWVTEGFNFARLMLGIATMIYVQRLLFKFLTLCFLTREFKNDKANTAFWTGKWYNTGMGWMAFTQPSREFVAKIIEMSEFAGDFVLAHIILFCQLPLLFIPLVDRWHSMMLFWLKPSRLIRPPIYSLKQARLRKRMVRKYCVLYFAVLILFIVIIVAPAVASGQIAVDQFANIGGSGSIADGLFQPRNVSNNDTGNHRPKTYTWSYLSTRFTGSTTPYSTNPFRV
# Sequence (O42825 whole entry partner): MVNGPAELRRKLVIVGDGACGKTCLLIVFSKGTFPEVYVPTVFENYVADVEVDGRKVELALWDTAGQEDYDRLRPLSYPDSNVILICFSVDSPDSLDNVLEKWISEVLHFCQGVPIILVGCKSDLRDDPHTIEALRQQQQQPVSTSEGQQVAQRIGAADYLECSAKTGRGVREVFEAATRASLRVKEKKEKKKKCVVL
# PROCEDURE_DETAILS: Glucan synthase inhibition (polymerization assay, 96-well, 3H-UDPG incorporation)
# CONDITION_DETAILS: glucan synthase from C. albicans MY1055
pIC50: −log10 of the molar value.
MEASURED_QUANTITY: pIC50

| COMPOUND | MEASURED_QUANTITY | QUANTITATIVE_RESULT |
| --- | --- | --- |
| CCCN(CCC)C(CC)COC1C(OC(C)=O)CC23COCC1(C)C2CCC1C3=CC(=O)C2(C)C(C(=O)O)C(C)(C(C)C(C)C)CCC12C (centres unmarked) | pIC50 | 6.30 |
| CC(=O)O[C@@H]1C[C@@]23COC[C@@](C)([C@@H]2CC[C@H]2C3=CC(=O)[C@@]3(C)[C@H](C(=O)O)[C@@](C)([C@H](C)C(C)C)CC[C@]23C)[C@H]1OCC(CN)CN(C)C (some centres unmarked) | pIC50 | 6.69 |
| CC(=O)O[C@@H]1C[C@@]23COC[C@](C)([C@@H]2CC[C@H]2C3=CC(=O)[C@@]3(C)[C@H](C(=O)O)[C@@](C)([C@H](C)C(C)C)CC[C@]23C)[C@H]1OCC(C(C)C)N1CCCCC1 (some centres unmarked) | pIC50 | 6.78 |
| CCC(C)(CO[C@H]1[C@H](OC(C)=O)C[C@@]23COC[C@]1(C)[C@@H]2CC[C@H]1C3=CC(=O)[C@@]2(C)[C@H](C(=O)O)[C@@](C)([C@H](C)C(C)C)CC[C@]12C)N(C)C (some centres unmarked) | pIC50 | 7.04 |
| CC(=O)O[C@@H]1C[C@@]23COC[C@](C)([C@@H]2CC[C@H]2C3=CC[C@@]3(C)[C@H](C(=O)O)[C@@](C)([C@H](C)C(C)C)CC[C@]23C)[C@H]1OCCNCCCN | pIC50 | 7.60 |
